Tested on: Staphylococcus aureus
Experiment: Antimicrobial activity against methicillin-resistant Staphylococcus aureus SG 511 by broth dilution method
Format: functional
OBSERVED PROPERTY: MIC (µg/mL)
Give just the number in µg/mL; leave the unit off.

Please review the entries below; each comes with its answer.
O=C(O)c1cccc2nc3ccccc3nc12	100
O=C(O)c1cn(C2CC2)c2cc(N3CCNCC3)c(F)cc2c1=O	12.5
C/C(=C\Cc1cccc2nc3cccc(C(=O)O)c3nc12)CO	100
CC(C)(O)/C=C/c1cccc2nc3cccc(C(=O)O)c3nc12	100

Now take the following molecule into account.
Which value of MIC has been reported for "O=C(O)c1cccc2c1Nc1ccccc1N2C(=O)CO" in the records?
100

====

MIC reference
Tested on: Mycolicibacterium vaccae
Assay: Antimicrobial activity against Mycobacterium vaccae IMET 10670 by broth dilution method
Assay type: functional
Kindly answer with a numeric value in µg/mL, unit omitted.

Consider the worked cases shown below.
CC(C)(O)/C=C/c1cccc2nc3cccc(C(=O)O)c3nc12	25
O=C(O)c1cccc2nc3ccccc3nc12	25
C/C(=C\Cc1cccc2nc3cccc(C(=O)O)c3nc12)CO	25
O=C(O)c1cccc2c1Nc1ccccc1N2C(=O)CO	25

Here is another molecule to look at.
Name the recorded MIC for "O=C(O)c1cn(C2CC2)c2cc(N3CCNCC3)c(F)cc2c1=O" .
0.1
